# Test system: TGF-β1
# ASSAY_PROCEDURE: EC50 of TGF-β1 siRNA candidates before and after modification, knockdown in cells
# Type: cell-based, human
# CONDITION_CONTEXT: U87MG cells, homo, 24 h, 24well (Table 6); read-out: EC50 (nM, 24 h, 24well) U87MG
Oligonucleotides are written 5' to 3', each unit as a sugar letter and its base; * is a phosphorothioate linkage, no mark a phosphodiester; rarer units and linkages stand in square brackets, end groups in braces. Plain capitals give the bases only. {P} = phosphorylation (indicated by P); d = 2'-deoxy (DNA); m = 2'-O-methyl; r = 2'-OH (RNA); f = 2'-fluoro

# SUBSTANCE, QUANTITY_UNIT, EC50
records = [
    ("TF1-21-hm6#: siRNA targeting TGF-β1 mRNA; sense SEQ ID 26, antisense SEQ ID 36 (sense CGGCAGCUGUACAUUGACUTT; antisense AGUCAAUGUACAGCUGCCGTT; sugars from the 5' end r19 d2, backbone not given here)", "nM", 0.12),
    ("TF1-21-hm3#: siRNA targeting TGF-β1 mRNA; sense SEQ ID 23, antisense SEQ ID 33 (sense AACUAUUGCUUCAGCUCCATT; antisense UGGAGCUGAAGCAAUAGUUTT; sugars from the 5' end r19 d2, backbone not given here)", "nM", 0.29),
    ("TF1-21-hm6#mod: Modified (2′F, 2′OME, phosphorylation) siRNA targeting TGF-β1; sense SEQ ID 148, antisense SEQ ID 152 (sense mCmGmGmCmAmGfCfUfGmUmAmCmAmUmUmGmAmCmUdTdT; antisense {P}-mAfGmUmCmAmAmUmGmUmAmCmAmGfCmUmGmCmCmGdTdT)", "nM", 0.09),
    ("TF1-21-hm3#mod: Modified (2′F, 2′OME, phosphorylation) siRNA targeting TGF-β1; sense SEQ ID 147, antisense SEQ ID 151 (sense mAmAmCmUmAmUfUfGfCmUmUmCmAmGmCmUmCmCmAdTdT; antisense {P}-mUfGmGmAmGmCmUmGmAmAmGmCmAfAmUmAmGmUmUdTdT)", "nM", 1.48),
]

----------
# System: TGF-β1
# ASSAY_PROCEDURE: EC50 of TGF-β1 siRNA candidates before and after modification, knockdown in cells
# Format: cell-based, human
# CONDITION_CONTEXT: Hucct cells, homo, 24h, 24well (second TGF-β1 table); read-out: EC50 (24h, nM, 24well) Hucct
d = 2'-deoxy (DNA); r = 2'-OH (RNA)
METRIC: EC50 (nM)

# SUBSTANCE, TARGET_OF_ASSAY, METRIC, READOUT_VALUE
measured = [
    ("TF1-21-hm6#: siRNA targeting TGF-β1 mRNA; sense SEQ ID 26, antisense SEQ ID 36 (sense CGGCAGCUGUACAUUGACUTT; antisense AGUCAAUGUACAGCUGCCGTT; sugars from the 5' end r19 d2, backbone not given here)", "TGF-β1", "EC50", 0.007),
    ("TF1-21-hm3#: siRNA targeting TGF-β1 mRNA; sense SEQ ID 23, antisense SEQ ID 33 (sense AACUAUUGCUUCAGCUCCATT; antisense UGGAGCUGAAGCAAUAGUUTT; sugars from the 5' end r19 d2, backbone not given here)", "TGF-β1", "EC50", 0.029),
    ("TF1-20190711-1#: siRNA targeting TGF-β1 mRNA; sense SEQ ID 1, antisense SEQ ID 2 (sense GCAGAGUACACACAGCAUATT; antisense UAUGCUGUGUGUACUCUGCTT; sugars from the 5' end r19 d2, backbone not given here)", "TGF-β1", "EC50", 0.002),
    ("TF1-21-hm7#: siRNA targeting TGF-β1 mRNA; sense SEQ ID 27, antisense SEQ ID 37 (sense GGCAGCUGUACAUUGACUUTT; antisense AAGUCAAUGUACAGCUGCCTT; sugars from the 5' end r19 d2, backbone not given here)", "TGF-β1", "EC50", 0.031),
]

----------
# Tested on: VEGFR2
# ASSAY_PROCEDURE: EC50 of VEGFR2 siRNA candidates before and after modification, knockdown in cells
# Assay type: cell-based, human
# CONDITION_CONTEXT: MD-MB-231 cells, 24 h, 24well; read-out: EC50 (nM, 24 h, 24well) Breast cancer MD-MB-231
Oligonucleotides are written 5' to 3', each unit as a sugar letter and its base; * is a phosphorothioate linkage, no mark a phosphodiester; rarer units and linkages stand in square brackets, end groups in braces. Plain capitals give the bases only. {P} = phosphorylation (indicated by P); d = 2'-deoxy (DNA); m = 2'-O-methyl; r = 2'-OH (RNA); f = 2'-fluoro

# SUBSTANCE, QUANTITY_UNIT, EC50
rows = [
    ("VEGFR2-21-h2#mod: Modified (2′F, 2′OME, phosphorylation) siRNA targeting VEGFR2; sense SEQ ID 132, antisense SEQ ID 140 (sense mGmGmUmCmCmAfUfUfUmCmAmAmAmUmCmUmCmAmAdTdT; antisense {P}-mUfUmGmAmGmAmUmUmUmGmAmAmAfUmGmGmAmCmCdTdT)", "nM", 0.14),
    ("VEGFR2-25-h3#: siRNA targeting VEGFR2 mRNA; sense SEQ ID 43, antisense SEQ ID 86 (sense GACCAACAUGGAGUCGUGUACAUUA; antisense UAAUGUACACGACUCCAUGUUGGUC; RNA, backbone not given here)", "nM", 1.8),
    ("VEGFR2-21-h5#: siRNA targeting VEGFR2 mRNA; sense SEQ ID 64, antisense SEQ ID 107 (sense GCAUCAGCAUAAGAAACUUTT; antisense AAGUUUCUUAUGCUGAUGCTT; sugars from the 5' end r19 d2, backbone not given here)", "nM", 0.4),
    ("VEGFR2-25-h 4#mod: Modified (2′F, 2′OME, phosphorylation) siRNA targeting VEGFR2; sense SEQ ID 134, antisense SEQ ID 142 (sense mCmCmCmUmUmGmAmGmUmCmCmAfAfUfCmAmCmAmCmAmAmUmUmAmA; antisense {P}-mUfUmAmAmUmUmGmUmGmUmGmAmUfUmGmGmAmCmUmCmAmAmGmGmG)", "nM", 0.21),
]

----------
Documented EC50 across a set of substances
# System: VEGFR2
# ASSAY_PROCEDURE: EC50 of VEGFR2 siRNA candidates before and after modification, knockdown in cells
# Format: cell-based, human
# CONDITION_CONTEXT: PANC-1 cells, 24 h, 24well; read-out: EC50 (nM, 24 h, 24well) Pancreatic cancer PANC-1
d = 2'-deoxy (DNA); r = 2'-OH (RNA)

# SUBSTANCE, EC50 (nM)
rows = [
    ("VEGFR2-21-hm17#: siRNA targeting VEGFR2 mRNA; sense SEQ ID 76, antisense SEQ ID 119 (sense GGACUGGCUUUGGCCCAAUTT; antisense AUUGGGCCAAAGCCAGUCCTT; sugars from the 5' end r19 d2, backbone not given here)", 2.09),
    ("VEGFR2-21-h5#: siRNA targeting VEGFR2 mRNA; sense SEQ ID 64, antisense SEQ ID 107 (sense GCAUCAGCAUAAGAAACUUTT; antisense AAGUUUCUUAUGCUGAUGCTT; sugars from the 5' end r19 d2, backbone not given here)", 0.51),
]

----------
# Tested on: VEGFR2
# ASSAY_PROCEDURE: EC50 of VEGFR2 siRNA candidates before and after modification, knockdown in cells
# Assay type: cell-based, human
# CONDITION_CONTEXT: MD-MB-231 cells, 24 h, 24well; read-out: EC50 (nM, 24 h, 24well) Breast cancer MD-MB-231
Oligonucleotides are written 5' to 3', each unit as a sugar letter and its base; * is a phosphorothioate linkage, no mark a phosphodiester; rarer units and linkages stand in square brackets, end groups in braces. Plain capitals give the bases only. {P} = phosphorylation (indicated by P); d = 2'-deoxy (DNA); m = 2'-O-methyl; r = 2'-OH (RNA); f = 2'-fluoro

# SUBSTANCE, EC50 / nM
measured = [
    ("VEGFR2-21-hm17#mod: Modified (2′F, 2′OME, phosphorylation) siRNA targeting VEGFR2; sense SEQ ID 135, antisense SEQ ID 143 (sense mGmGmAmCmUmGfGfCfUmUmUmGmGmCmCmCmAmAmUdTdT; antisense {P}-mAfUmUmGmGmGmCmCmAmAmAmGmCfCmAmGmUmCmCdTdT)", 0.32),
    ("VEGFR2-21-h2#: siRNA targeting VEGFR2 mRNA; sense SEQ ID 61, antisense SEQ ID 104 (sense GGUCCAUUUCAAAUCUCAATT; antisense UUGAGAUUUGAAAUGGACCTT; sugars from the 5' end r19 d2, backbone not given here)", 0.72),
    ("VEGFR2-21-hm18#: siRNA targeting VEGFR2 mRNA; sense SEQ ID 77, antisense SEQ ID 120 (sense GGAAAAAACAAAACUGUAATT; antisense UUACAGUUUUGUUUUUUCCTT; sugars from the 5' end r19 d2, backbone not given here)", 3.26),
    ("VEGFR2-21-h5#mod: Modified (2′F, 2′OME, phosphorylation) siRNA targeting VEGFR2; sense SEQ ID 137, antisense SEQ ID 145 (sense mGmCmAmUmCmAfGfCfAmUmAmAmGmAmAmAmCmUmUdTdT; antisense {P}-mAfAmGmUmUmUmCmUmUmAmUmGmCfUmGmAmUmGmCdTdT)", 0.01),
    ("VEGFR2-21-hm18# mod: Modified (2′F, 2′OME, phosphorylation) siRNA targeting VEGFR2; sense SEQ ID 136, antisense SEQ ID 144 (sense mGmGmAmAmAmAfAfAfCmAmAmAmAmCmUmGmUmAmAdTdT; antisense {P}-mUfUmAmCmAmGmUmUmUmUmGmUmUfUmUmUmUmCmCdTdT)", 0.02),
    ("VEGFR2-25-h3#mod: Modified (2′F, 2′OME, phosphorylation) siRNA targeting VEGFR2; sense SEQ ID 133, antisense SEQ ID 141 (sense mGmAmCmCmAmAmCmAmUmGmGmAfGfUfCmGmUmGmUmAmCmAmUmUmA; antisense {P}-mUfAmAmUmGmUmAmCmAmCmGmAmCfUmCmCmAmUmGmUmUmGmGmUmC)", 1.65),
    ("VEGFR2-21-hm17#: siRNA targeting VEGFR2 mRNA; sense SEQ ID 76, antisense SEQ ID 119 (sense GGACUGGCUUUGGCCCAAUTT; antisense AUUGGGCCAAAGCCAGUCCTT; sugars from the 5' end r19 d2, backbone not given here)", 1.04),
]

Just for reference, patent US20230323358A1 is where these values come from.
